Hi there, I'd appreciate the recorded inhibition for every entry that follows.
- Target Under Test: High affinity immunoglobulin epsilon receptor subunit alpha (Homo sapiens)
- Sequence (whole entry): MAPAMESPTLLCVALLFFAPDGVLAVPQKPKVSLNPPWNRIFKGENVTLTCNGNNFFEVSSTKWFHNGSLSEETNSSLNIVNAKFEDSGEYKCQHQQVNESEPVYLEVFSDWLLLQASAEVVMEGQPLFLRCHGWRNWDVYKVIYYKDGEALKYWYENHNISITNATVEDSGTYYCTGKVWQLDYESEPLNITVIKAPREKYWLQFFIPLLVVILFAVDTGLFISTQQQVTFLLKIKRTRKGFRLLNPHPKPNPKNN
- Assay Info: Inhibition of anti-IgE antibody-stimulated histamine release in human basophills at 10 uM
- Assay type: functional
Numeric only. Scale: %

Q. Request body: readout inhibition, system High affinity immunoglobulin epsilon receptor subunit alpha (Homo sapiens), query `COc1ccc2c(c1)c(Sc1ccccc1)c(C(=O)Nc1nn[nH]n1)n2-c1ccccc1` . Return the value.
A. 30

Q. Request body: readout inhibition, system High affinity immunoglobulin epsilon receptor subunit alpha (Homo sapiens), query `COc1ccc(-n2c(C(=O)Nc3nn[nH]n3)c(OC(C)C)c3cc(OC)ccc32)cc1` . Return the value.
A. 16

Q. Request body: readout inhibition, system High affinity immunoglobulin epsilon receptor subunit alpha (Homo sapiens), query `CC(C)Oc1c(C(=O)Nc2nn[nH]n2)n(-c2ccccc2)c2ccc(Cl)cc12` . Return the value.
A. 18

FYI, the data here is from ChEMBL document CHEMBL1124502.
